Provide the reported composite z-score of each item.
- test-system: Follistatin (Homo sapiens) (UniProt P19883)
- Sequence (P19883 whole entry, looked up): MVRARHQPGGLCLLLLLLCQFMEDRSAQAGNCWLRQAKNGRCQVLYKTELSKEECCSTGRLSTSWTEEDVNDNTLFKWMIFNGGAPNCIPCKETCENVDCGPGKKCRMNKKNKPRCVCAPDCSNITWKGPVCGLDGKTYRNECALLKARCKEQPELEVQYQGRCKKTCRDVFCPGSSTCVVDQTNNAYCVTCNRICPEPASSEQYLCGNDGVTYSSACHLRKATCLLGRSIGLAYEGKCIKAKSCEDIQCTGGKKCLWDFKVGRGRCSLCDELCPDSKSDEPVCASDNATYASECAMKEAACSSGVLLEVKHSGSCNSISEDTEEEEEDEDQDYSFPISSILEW
- procedure-summary: follistatin binders on small-molecule microarrays, primary screen, biochemical, small-molecule microarray, 635/667 nm fluorescence (AID 1132)
- experimental-setup: FST binding, 635 nm fluorescence, higher = more signal
Answers are plain numbers.

The cases that follow already have their composite z-score on record.
- C=C(CCCC)C(=O)CC[C@@H](OC(C)=O)c1ccc(OCCO)cc1: 1.46
- C=CC[C@]12N=C(c3ccc(OCCCO)cc3)O[C@H]1c1ccccc1N(CCC)C2=O: 1.46

Batch request: composite z-score per item, same order as input.
1. COc1cc(Cc2cc3c(c(CCc4ccccc4)n2)[Si](C(C)C)(C(C)C)O[C@H]3c2ccccc2)cc(OC)c1OC
2. CCOC(=O)C[C@H]1[C@H](OC(=O)c2ccc(-c3ccccc3)cc2)[C@@H](NC(=O)C2CCCCC2)c2cc(OCCCO)ccc2N1C(=O)Cc1ccc(OC)cc1
3. CO[C@H]1O[C@H](CO)[C@@H](OC(=O)Nc2cccc(F)c2)[C@H](OC(=O)c2cc3ccccc3[nH]2)[C@H]1OC(=O)c1cc2ccccc2[nH]1
4. [N-]=[N+]=Nc1ccccc1C[C@@]1(C(=O)NCC(O)CO)N=C(c2ccc(OCCCO)cc2)O[C@@H]1c1ccccc1N=[N+]=[N-] (stereo partly specified)
5. C=CCNC(=O)[C@@H]1[C@H]2C(=O)O[C@H](c3ccccc3)[C@H](c3ccccc3)N2[C@H](c2ccc(OCCO)cc2)[C@@]12C(=O)Nc1ccc(C#CC3=CCCCC3)cc12

0.214
0.2
0.498
0.14
1.1

Batch request: composite z-score per item, same order as input.
1. O=C1N(Cc2ccccc2)c2ccccc2C[C@@]12N=C(c1ccc(OCCCO)cc1)O[C@H]2c1ccccc1
2. OCCCc1cc[n+](Cc2cc3c(cc2Br)OCO3)cc1
3. COc1ccc(CCNC(=O)[C@@H]2c3ccccc3C(=O)N(C(C)C)[C@H]2c2ccc(CO)cc2)cc1
4. C=C[C@H](OC)[C@@H](O)c1ccc(OC)c(O)c1
5. Cc1ccc(S[C@]2(C(=O)NC(C)C)CC(=O)N(Cc3ccccc3)[C@@H]2c2ccc(CO)cc2)cc1
6. C=CC[C@H](OC(=O)Nc1ccc(SC)cc1)c1ccc(O)c(F)c1
7. CC(C)(C)OC(=O)CC[C@@]1(C(=O)N2CCOCC2)N=C(c2ccc(OCCCO)cc2)O[C@@H]1c1ccccc1CN=[N+]=[N-]
8. Cc1ccc(S[C@]2(C(=O)NCC(C)C)CC(=O)N(C(C)C)[C@@H]2c2ccc(CO)cc2I)cc1

1. 1.33
2. -0.528
3. -1.27
4. -0.857
5. -1.15
6. 0.137
7. 1.4
8. -0.888

Batch request: composite z-score per item, same order as input.
1. N#Cc1ccc(NN2C(C(O)c3ccc(B(O)O)cc3)C=CC3CN(c4ccccc4)C(=O)C32)cc1 (stereo unspecified)
2. CC(=O)NCCCC[C@@H]1NC(=O)[C@H]2C[C@@H](C(=O)O)[C@@H](c3cccc(OCCO)c3)N2C1=O
3. O=C1NC(=O)C2C1C=CC(C(O)C(O)CO)N2Nc1ccccn1 (stereo unspecified)

1: -0.0923; 2: 1.29; 3: 0.176

Batch request: composite z-score per item, same order as input.
1. C=CC[C@]1(C(N)=O)N=C(c2ccc(OCCCO)cc2)O[C@H]1c1ccccc1N=[N+]=[N-]
2. C[C@]1(C(=O)NC2CC2)c2ccccc2C(=O)N(Cc2cc(F)cc(C(F)(F)F)c2)[C@H]1c1ccc(CO)cc1
3. CC(C)N1C(=O)[C@@]2(Cc3ccccc31)c1ccccc1C(=O)N(Cc1ccccc1)[C@H]2c1ccc(CO)cc1
4. COC(=O)C(CC#Cc1ccc2c(c1)[C@]1(C(=O)N2)[C@H](c2ccccc2OCCO)N2[C@H](c3ccccc3)[C@H](c3ccccc3)OC(=O)[C@H]2[C@@H]1C(=O)N1CCN(c2ncccn2)CC1)C(=O)OC
5. COC(=O)[C@@]1(Cc2ccc(F)cc2)[C@H]2c3cc(C(=O)N(C)C)n(Cc4cccc5ccccc45)c3C[C@H]2CN1C(=O)c1ccccc1

1. 1.12
2. 0.719
3. 0.848
4. 1.04
5. 0.137
